As shown below, each of these compounds has a reported % PHAKPA (F129L) Disease level P2 at 16 ppm value.
# Test system: Phakopsora pachyrhizi (F129L)
# ASSAY_PROTOCOL: Protective control of soybean rust on soybeans (PHAKPA P2)
# Format: in vivo
# PARTICULARS: protective P2, 16 ppm, F129L isolate
Only the number, expressed in %, is required.

Input line: Name the reported % PHAKPA (F129L) Disease level P2 at 16 ppm value associated with the compound CNC(=O)/C(=N/OC)c1cccc(C)c1CO/N=C(\C)c1c(Cl)cc(Cl)cc1OC(F)(F)F
Output line: 11

Input line: # repeat for CO/C=C(/C(=O)OC)c1cccc(C)c1CO/N=C(\C)c1ccc(Cl)c(Cl)c1C(F)(F)F
Output line: 6

Input line: Quick one: CNC(=O)/C(=N/OC)c1cccc(C)c1CO/N=C(\C)c1ccc(Cl)c(F)c1CC(F)(F)F
Output line: 6

Input line: Try this compound next: CNC(=O)/C(=N/OC)c1cccc(C)c1CO/N=C(\C)c1cc(F)c(F)cc1CC(F)(F)F
Output line: 30

----------
# System: Phakopsora pachyrhizi (F129L)
# ASSAY_PROTOCOL: Protective control of soybean rust on soybeans (PHAKPA P2)
# Assay type: in vivo
# PARTICULARS: protective P2, 16 ppm, F129L isolate
Reported % PHAKPA (F129L) Disease level P2 at 16 ppm values follow for various compounds
Report the value in % with no unit label.

Below, 5 compounds whose answers are already recorded.
C=Cc1cccc(/C(=N\OC)C(=O)NC)c1CO/N=C(\C)c1ccccc1 [compound 400] : 0
CO/C=C(/C(=O)OC)c1cccc(C)c1CO/N=C(\C)c1ccccc1CC(F)(F)F [compound 437] : 0
CNC(=O)/C(=N/OC)c1cccc(C)c1CO/N=C(\C)c1ccc(/C(C)=N\OC)cc1OC(F)(F)F [compound 415] : 5
CNC(=O)/C(=N/OC)c1cccc(C)c1CO/N=C(\C)c1ccc(Cl)c(Cl)c1C(F)(F)F [compound 431] : 7
CO/N=C(/C(=O)OC)c1cccc(C)c1CO/N=C(\C)c1ccc(Cc2ccccc2)cc1OC(F)(F)F [compound 416] : 27

Input line: Look up % PHAKPA (F129L) Disease level P2 at 16 ppm with Phakopsora pachyrhizi (F129L) for this compound: CO/C=C(/C(=O)OC)c1cccc(C)c1CO/N=C(\C)c1ccc(-c2ccc(F)cc2)cc1C(F)(F)F [compound 432]
Output line: 0

Input line: Record: CO/N=C(/C)c1ccc(/C(C)=N/OCc2c(C)cccc2/C(=N\OC)C(=O)OC)c(C(F)(F)F)c1 [compound 417]
Output line: 18

----------
# Tested on: Phakopsora pachyrhizi (F129L)
# ASSAY_PROTOCOL: Protective control of soybean rust on soybeans (PHAKPA P2)
# Format: in vivo
# PARTICULARS: protective P2, 16 ppm, F129L isolate
Listing: % PHAKPA (F129L) Disease level P2 at 16 ppm of selected molecules
Unit % implied. Number only.

Some molecules with known % PHAKPA (F129L) Disease level P2 at 16 ppm results, for comparison:
CO/N=C(/C(=O)OC)c1cccc(C)c1CO/N=C(\C)c1ccc(-c2ccccc2)cc1C(F)(F)F : 9
CO/C=C(/C(=O)OC)c1cccc(C)c1CO/N=C(\C)c1ccc(Cl)c(F)c1OC(F)(F)F : 6
CO/C=C(/C(=O)OC)c1cccc(C)c1CO/N=C(\C)c1ccc(-c2ccccc2)cc1OC(F)(F)F : 67
CO/N=C(/C(=O)OC)c1cccc(C)c1CO/N=C(\C)c1ccc(Cl)c(Cl)c1C(F)(F)F : 50
CNC(=O)/C(=N/OC)c1cccc(OC)c1CO/N=C(\C)c1cccc(C(F)(F)F)c1 : 2
CO/C=C(/C(=O)OC)c1cccc(C)c1CO/N=C(\C)c1ccc(OC(F)(F)F)cc1Cl : 0
CNC(=O)/C(=N/OC)c1cccc(C)c1CO/N=C(\C)c1cc(F)c(F)cc1C(F)(F)F : 0

We next turn to a different molecule, shown below.
Input line: Request the reported % PHAKPA (F129L) Disease level P2 at 16 ppm associated with CNC(=O)/C(=N/OC)c1cccc(C)c1CO/N=C(/c1ccccc1)C(C)C
Output line: 4
